Task for the reader: assign each of the following variants its reported protein stability index.
B1: VPS39 (parent)
chain: LRLENNHCHIEESEHVLKKAHKYS

# Variants of: B1
# protocol_summary: protein stability index of a GFP-peptide fusion (GPS, HEK-293T) (PSI 1-6); higher = more stable;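 also: lentivirally expressed fusions sorted by FACS into six bins by GFP to DsRed ratio, PSI derived from sequencing read proportions per bin multiplied by bin number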
# assay_conditions: c terminus: a fixed tail appended
Answers are plain numbers.

Solved cases (3 shown):
- mutant_designation: "S24D"
  measured_metric: "protein stability index"
  assay_value: 2.25
- mutant_designation: "E12C"
  measured_metric: "protein stability index"
  assay_value: 2.11
- mutant_designation: "N5T"
  measured_metric: "protein stability index"
  assay_value: 2.48

Below are some variants; for each one, tell me its protein stability index.
1. R2I
2. H7S
3. A20I
4. E4M
5. I10A
6. S13A
7. H7M
8. R2A

1. 2.54
2. 2.04
3. 1.61
4. 2.65
5. 3.75
6. 2.69
7. 2.46
8. 3.68

Items follow; give protein stability index for each.
1. K22V
2. H15W
3. K18D
4. L3W
5. V16Q
6. E14V
7. I10Y
8. L3E

1. 2.57
2. 2.09
3. 2.31
4. 3.01
5. 1.39
6. 2.9
7. 2.57
8. 4.58

Hey, can you go through the list below and give me protein stability index for every item?
1. H21W
2. L1C
3. E11H

[2.12, 3.29, 2.52]
